For each record, write down the corresponding z-score.
- protocol_summary: osmotic lysis modulators in infected erythrocytes, primary screen, PSAC antagonist project, cell-based, P. falciparum Indochina, OD700, 3 h (AID 1156)
- cond: higher = more signal, called active from +8 up or from −8 down
Hey, just send me the number, nothing else.

QUERY: Return reported z-score; argument: CC(C)NC(=O)[C@@H]1c2ccccc2C(=O)N(C2Cc3ccccc3C2)[C@H]1c1ccc(CO)cc1
RESULT: 0.121

QUERY: Return reported z-score; argument: C[C@H]1NC(=O)[C@@]23C(=O)N[C@@H](Cc4ccccc4)C2[C@H](C)[C@@]2(C)O[C@H]2C3/C=C/C/C=C\CNC(=O)[C@@H]2CCCN2C1=O (some centres not stated)
RESULT: 0.159

QUERY: Return reported z-score; argument: C=CCOC(=O)[C@H]1[C@@H]2C(=O)O[C@@H](c3ccccc3)[C@@H](c3ccccc3)N2[C@@H](c2ccc(OCCOC(=O)[C@H]3C[C@H]4C(=O)N[C@@H](CCCCNC(C)=O)C(=O)N4[C@H]3c3ccc(O)cc3)cc2)[C@]12C(=O)Nc1ccc(I)cc12
RESULT: 0.675

QUERY: Return reported z-score; argument: COc1cc(C(O)C2C=CC3C(=O)NC(=O)C3N2Nc2ccccn2)cc(OC)c1OC (configuration not stated)
RESULT: -0.928

QUERY: Return reported z-score; argument: COC(=O)[C@]1(CCC(=O)OC(C)(C)C)N=C(c2ccc(OCCCO)cc2)O[C@@H]1c1ccccc1CN=[N+]=[N-]
RESULT: -0.615

QUERY: Return reported z-score; argument: O=C1C[C@@](C(=O)NC2CC2)(c2ccc([N+](=O)[O-])cc2)[C@@H](c2ccc(CO)cc2I)N1C1CCCCC1
RESULT: 3.03

QUERY: Return reported z-score; argument: [N-]=[N+]=Nc1ccccc1[C@@H]1OC(c2ccc(OCCCO)cc2)=N[C@]1(CCS(=O)(=O)c1ccccc1)C(N)=O
RESULT: 1.26

QUERY: Return reported z-score; argument: CC(C)c1ccc(NN2C(C(O)c3ccc(B(O)O)cc3)C=CC3C(=O)N(c4ccccc4)C(=O)C32)cc1 (configuration not stated)
RESULT: 0.421

QUERY: Return reported z-score; argument: Cc1ccc(N2C(=O)c3ccccc3[C@@H](C(=O)NC3CC3)[C@@H]2c2ccc(CO)cc2)nc1
RESULT: 0.62

QUERY: Return reported z-score; argument: C=C(/C(=C/C[C@H](OC(C)=O)c1ccc(CO)o1)c1cc(C(=O)OC)ccc1OC)C(C)C
RESULT: 2.6

QUERY: Return reported z-score; argument: COc1ccc([C@H]2OC[C@@H]3C[C@@H](Cc4ccccc4)C(=O)N32)cc1
RESULT: -0.59

QUERY: Return reported z-score; argument: O=C1C2C=CC(C(O)Cc3ccccc3)N(n3cnnc3)C2C(=O)N1Cc1ccccc1 (configuration not stated)
RESULT: 1.04

QUERY: Return reported z-score; argument: NC(=O)NCC#Cc1ccc2c(c1)[C@]1(C(=O)N2)[C@H](C(N)=O)[C@H]2C(=O)O[C@H](c3ccccc3)[C@H](c3ccccc3)N2[C@@H]1c1ccc(O)cc1
RESULT: 0.471

QUERY: Return reported z-score; argument: O=C(c1ccccc1)N1C(=O)[C@@]2(Cc3ccccc31)N=C(c1ccc(OCCCO)cc1)O[C@H]2c1ccccc1
RESULT: 3.04

QUERY: Return reported z-score; argument: Cc1ccc(S[C@]2(C(=O)NC3CC3)CC(=O)N(Cc3ccccc3)[C@@H]2c2ccc(CO)cc2I)cc1
RESULT: -0.282

QUERY: Return reported z-score; argument: COCCOC(=O)N1C(=O)[C@@]2(c3cc(C#CC4(O)CCCCCC4)ccc31)[C@H](c1ccccc1OCCO)N1[C@H](c3ccccc3)[C@H](c3ccccc3)OC(=O)[C@H]1[C@@H]2C(=O)N1CCN(c2ncccn2)CC1
RESULT: 0.824

QUERY: Return reported z-score; argument: CC1(C)[C@@H]2CC(C(O)C3C=CC4C(=O)N(Cc5ccccc5)C(=O)C4N3n3cnnc3)=C[C@H]1C2 (some centres not stated)
RESULT: 0.313
